Tested on: MCF7 breast
Experiment: NCI-60 one-dose screen, 48 h (100 = growth as untreated, 0 = no growth, -100 = all killed)
Conditions: 10 µM unless noted
The panel holds about 83,000 compounds, 20% with a hit somewhere; the sample as a whole holds those more often.
Consider the following compounds; for each one, report its growth.
Give your result in % as a bare value.

Data point: `CCN1CCN(Cc2ccc(-c3cc4c(N[C@H](C)c5ccccc5)ncnc4[nH]3)cc2)CC1` ; growth = 48.6

So, `CNC(=O)c1cccc2cc(Oc3ccnc4cc(OCC5(N)CC5)c(OC)cc34)ccc12` ? Its growth was 49.1

// growth lookup, compound = `O=C1NC(=O)[C@@H](c2cn3c4c(cccc24)CCC3)[C@@H]1c1c[nH]c2ccccc12` , result: 19.5
